system.tested: wild type HCV NS3/4A 1b protease enzyme (Hepatitis C virus genotype 1b)
Construct: 10× stocks of NS3/4A protease enzyme from Bioenza (Mountain View, Calif.); purchased Bioenza (Mountain View, Calif.)
procedure.summary: biochemical
Assay type: biochemical
settings: read-out: Inhibition, WT; WT enzyme, FRET assay
endpoint: IC50

// recorded IC50 for C=C[C@@H]1C[C@]1(NC(=O)[C@@H]1C[C@@H](Oc2cc(-c3ccccc3)nc3cc(OC)ccc23)CN1C(=O)[C@H](CN(C)C(=O)[C@H](Cl)c1ccccc1)NC(=O)OC(C)(C)C)C(=O)NS(=O)(=O)c1ccccc1 : < 10 nM

// recorded IC50 for C=C[C@@H]1C[C@]1(NC(=O)[C@@H]1C[C@@H](Oc2cc(-c3ccccc3)nc3cc(OC)ccc23)CN1C(=O)C1(NC(=O)OC(C)(C)C)CCN(C(=O)CCl)CC1)C(=O)NS(=O)(=O)c1ccccc1 : < 10 nM

// recorded IC50 for C=C[C@@H]1C[C@]1(NC(=O)[C@@H]1C[C@@H](Oc2cc(-c3ccccc3)nc3cc(OC)ccc23)CN1C(=O)[C@H](CNC(=O)C1(C#N)CC1)NC(=O)OC(C)(C)C)C(=O)NS(=O)(=O)c1ccccc1 : < 10 nM

---

Test system: HCV RNA replicon in cell line ET (luc-ubi-neo/ET), human Huh7 hepatoma
procedure.summary: Method A: HCV RNA replicon antiviral assay (luciferase, ET cell line)
Assay type: cell-based, Hepatitis C virus
settings: Hepatitis C virus, Huh-7; Replicon, assay of Example 22; 72 hr; read-out: Inhibition, Replicon
pIC50: −log10 of the molar value.
endpoint: pIC50

compound | pIC50
C=C[C@@H]1C[C@]1(NC(=O)[C@@H]1C[C@@H](Oc2cc(-c3ccccc3)nc3cc(OC)ccc23)CN1C(=O)[C@H](CNC(=O)CCl)NC(=O)OC(C)(C)C)C(=O)NS(=O)(=O)c1ccccc1 [Compound I-7] | 7.00 to 8.00
C=CC(=O)N1CCC(NC(=O)OC(C)(C)C)(C(=O)N2C[C@H](Oc3cc(-c4ccccc4)nc4cc(OC)ccc34)C[C@H]2C(=O)N[C@]2(C(=O)NS(=O)(=O)c3ccccc3)C[C@H]2C=C)CC1 [Compound I-26] | < 5.00
C=CC(=O)N(C)C[C@H](NC(=O)OC(C)(C)C)C(=O)N1C[C@H](Oc2cc(-c3ccccc3)nc3cc(OC)ccc23)C[C@H]1C(=O)N[C@]1(C(=O)NS(=O)(=O)c2ccccc2)C[C@H]1C=C [Compound I-28] | > 8.00
C=CC(=O)NCC(=O)N1C[C@H](Oc2cc(-c3ccccc3)nc3cc(OC)ccc23)C[C@H]1C(=O)N[C@]1(C(=O)NS(=O)(=O)C2CC2)C[C@H]1C=C [Compound I-39] | 7.00 to 8.00

// recorded pIC50 for C=C[C@@H]1C[C@]1(NC(=O)[C@@H]1C[C@@H](Oc2cc(-c3ccccc3)nc3cc(OC)ccc23)CN1C(=O)[C@H](CCNC(=O)C(C)Br)NC(=O)OC(C)(C)C)C(=O)NS(=O)(=O)c1ccccc1 (some centres unmarked) [Compound I-20] : 6.00 to 7.00

---

system.tested: D168A mutant of the HCV NS3/4A 1b protease enzyme (Hepatitis C virus genotype 1b, UniProt P26663, D1194A)
Construct: 10× stocks of NS3/4A protease enzyme from Bioenza (Mountain View, Calif.); purchased Bioenza (Mountain View, Calif.)
procedure.summary: HCV Protease FRET Assay (IC50), D168A mutant
Type: biochemical
settings: D168A enzyme, FRET assay; read-out: Inhibition, HCV D168A
endpoint: IC50

// recorded IC50 for C=C[C@@H]1C[C@]1(NC(=O)[C@@H]1C[C@@H](Oc2cc(-c3ccccc3)nc3cc(OC)ccc23)CN1C(=O)[C@H](CNC(=O)CC)NC(=O)OC(C)(C)C)C(=O)NS(=O)(=O)c1ccccc1 : 100 to 1000 nM

Source: patent US8309685B2
